Property: melting point; scope: individual compounds

Quote melting point reported for Cc1nc2c3c(nn2c(C)c1Cl)CN(C(=O)c1ccccc1OC(F)(F)F)C3 [Example 14] please.
179 to 181 °C

Quote melting point reported for CCOc1c(F)cc(F)cc1C(=O)N1Cc2nn3c(C)c(Cl)c(C)nc3c2C1 [Example 28] please.
153 to 155 °C

Quote melting point reported for O=C(c1ccc(F)cc1OC(F)(F)C(F)F)N1Cc2nn3cc(Cl)cnc3c2C1 [Example 138] please.
208 to 210 °C

Quote melting point reported for O=C(c1ccccc1OC(F)(F)C(F)F)N1Cc2nn3cc(Cl)cnc3c2C1 [Example 106] please.
194 to 196 °C

Quote melting point reported for CCCCOc1ccccc1C(=O)N1Cc2nn3c(C)c(Cl)c(C)nc3c2C1 [Example 11] please.
167 to 169 °C

Quote melting point reported for Cc1nc2c3c(nn2c(C)c1Cl)CN(C(=O)c1ccccc1CN1CCN2CCCC2C1)C3 (centres unmarked) [Example 97] please.
180 to 182 °C

Quote melting point reported for CSCCOc1ccccc1C(=O)N1Cc2nn3c(C)c(Cl)c(C)nc3c2C1 [Example 15] please.
183 to 185 °C

Quote melting point reported for Cc1nc2c3c(nn2c(C)c1Cl)CN(C(=O)c1ccccc1OCC(C)C)C3 [Example 30] please.
184 to 187 °C

---

Property: pEC50; scope: individual molecules
assay_system: muscarinic M1 receptor (Homo sapiens, UniProt P11229)
Construct: expressed in transfected cells; host or cells: CHO (M1-CHO cells)
protocol_summary: M1 PAM Assay (IP-One HTRF, IP1 in M1-CHO cells with EC20 of acetylcholine)
Format: cell-based
test_parameters: 1 hour at room temperature, IP1 readout
pEC50: −log10 of the molar value.

Quote pEC50 reported for CCOc1ccccc1C(=O)N1Cc2nn3cc(Cl)cnc3c2C1 please.
5.70 to 6.00

Quote pEC50 reported for CCOc1ccccc1C(=O)N1Cc2nn3c(C)c(C)c(C)nc3c2C1 please.
6.00 to 6.70

---

Property: EC50; scope: individual molecules
assay_system: muscarinic M1 receptor (Homo sapiens, UniProt P11229)
Sequence (P11229 1-460): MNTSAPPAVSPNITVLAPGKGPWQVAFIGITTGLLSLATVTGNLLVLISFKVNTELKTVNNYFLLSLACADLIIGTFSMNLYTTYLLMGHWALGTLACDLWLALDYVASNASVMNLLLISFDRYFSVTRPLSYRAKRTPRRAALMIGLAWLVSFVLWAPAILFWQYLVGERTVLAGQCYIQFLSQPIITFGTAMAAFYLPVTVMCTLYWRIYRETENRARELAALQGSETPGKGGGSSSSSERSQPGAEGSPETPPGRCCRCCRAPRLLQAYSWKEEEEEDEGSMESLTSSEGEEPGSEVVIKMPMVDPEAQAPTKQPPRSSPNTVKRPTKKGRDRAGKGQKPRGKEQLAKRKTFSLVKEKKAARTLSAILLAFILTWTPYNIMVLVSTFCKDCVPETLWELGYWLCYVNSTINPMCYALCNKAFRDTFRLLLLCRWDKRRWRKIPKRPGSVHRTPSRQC
protocol_summary: M1 PAM Assay (IP-One HTRF, IP1 in M1-CHO cells with EC20 of acetylcholine)
test_parameters: 1 hour at room temperature, IP1 readout

[
  {
    "molecule": "CC(=O)Oc1ccccc1C(=O)N1Cc2nn3c(C)c(C)c(C)nc3c2C1 [Example 23]",
    "assay_system": "muscarinic M1 receptor (Homo sapiens, UniProt P11229)",
    "EC50": "200 to 1000 nM"
  },
  {
    "molecule": "Cc1nc2c3c(nn2c(C)c1Cl)CN(C(=O)c1ccccc1OC1CCNCC1)C3 [Example 3]",
    "assay_system": "muscarinic M1 receptor (Homo sapiens, UniProt P11229)",
    "EC50": "< 200 nM"
  },
  {
    "molecule": "Cc1nc2c3c(nn2c(C)c1C)CN(C(=O)c1ccccc1N1CCCN(C)CC1)C3 [Example 19]",
    "assay_system": "muscarinic M1 receptor (Homo sapiens, UniProt P11229)",
    "EC50": "200 to 1000 nM"
  },
  {
    "molecule": "CCCCOc1ccccc1C(=O)N1Cc2nn3c(C)c(C)c(C)nc3c2C1 [Example 21]",
    "assay_system": "muscarinic M1 receptor (Homo sapiens, UniProt P11229)",
    "EC50": "200 to 1000 nM"
  }
]

Consider the additional molecule presented here.
Quote EC50 reported for Cc1nc2c3c(nn2c(C)c1Cl)CN(C(=O)c1ccccc1OC(F)(F)C(F)F)C3 [Example 2] please.
< 200 nM

---

assay_system: muscarinic M1 receptor (Homo sapiens, UniProt P11229)
protocol_summary: M1 PAM Assay (IP-One HTRF, IP1 in M1-CHO cells with EC20 of acetylcholine)
test_parameters: 1 hour at room temperature, IP1 readout
pEC50: −log10 of the molar value.
Property: pEC50; scope: individual compounds

[
  {
    "input_smiles": "Cc1nc2c3c(nn2c(C)c1C)CN(C(=O)c1ccccc1OCCC1CCCCC1)C3",
    "attribute_measured": "pEC50",
    "value_measured": "5.70 to 6.00"
  }
]

Quote pEC50 reported for CCOc1ccccc1C(=O)N1Cc2nn3c(C)c(Cl)c(C)nc3c2C1 please.
6.00 to 6.70

---

assay_system: muscarinic M1 receptor (Homo sapiens, UniProt P11229)
protocol_summary: M1 PAM Assay (IP-One HTRF, IP1 in M1-CHO cells with EC20 of acetylcholine)
test_parameters: 1 hour at room temperature, IP1 readout
pEC50: −log10 of the molar value.
attribute_measured: pEC50

Quote pEC50 reported for CCNc1ccccc1C(=O)N1Cc2nn3c(C)c(C)c(C)nc3c2C1 please.
5.70 to 6.00

Quote pEC50 reported for Cc1nc2c3c(nn2c(C)c1Cl)CN(C(=O)c1ccccc1OC1CCOCC1)C3 please.
5.70 to 6.00

---

Property: EC50; scope: individual compounds
assay_system: muscarinic M1 receptor (Homo sapiens)
protocol_summary: M1 PAM Assay (IP-One HTRF, IP1 in M1-CHO cells with EC20 of acetylcholine)
test_parameters: 1 hour at room temperature, IP1 readout

Use these answered entries as a reference point.
[
  {
    "input_smiles": "COc1c(F)cc(F)cc1C(=O)N1Cc2nn3c(C)c(Cl)c(C)nc3c2C1",
    "EC50": "200 to 1000 nM"
  },
  {
    "input_smiles": "Cc1nc2c3c(nn2c(C)c1Cl)CN(C(=O)c1ccccc1OC(F)(F)F)C3",
    "EC50": "200 to 1000 nM"
  },
  {
    "input_smiles": "Cc1nc2c3c(nn2c(C)c1Cl)CN(C(=O)c1ccccc1N1CCCC1)C3",
    "EC50": "200 to 1000 nM"
  },
  {
    "input_smiles": "CCOc1c(F)cc(F)cc1C(=O)N1Cc2nn3c(C)c(Cl)c(C)nc3c2C1",
    "EC50": "1000 to 2000 nM"
  },
  {
    "input_smiles": "CC(C)Oc1ccccc1C(=O)N1Cc2nn3cc(Cl)cnc3c2C1",
    "EC50": "1000 to 2000 nM"
  }
]

Quote EC50 reported for Cc1cn2nc3c(c2nc1C)CN(C(=O)c1ccccc1OCCN(C)C)C3 please.
1000 to 2000 nM

Quote EC50 reported for Cc1nc2c3c(nn2c(C)c1Cl)CN(C(=O)c1ccccc1N1CCCN(C)CC1)C3 please.
200 to 1000 nM

Quote EC50 reported for Cc1nc2c3c(nn2c(C)c1C)CN(C(=O)c1ccccc1OCCN(C)C)C3 please.
200 to 1000 nM

Quote EC50 reported for Cc1nc2c3c(nn2c(C)c1C)CN(C(=O)c1ccccc1OCCN1CCCCC1)C3 please.
200 to 1000 nM

---

Property: EC50; scope: individual compounds
assay_system: muscarinic M1 receptor (Homo sapiens, UniProt P11229)
Sequence (P11229 1-460): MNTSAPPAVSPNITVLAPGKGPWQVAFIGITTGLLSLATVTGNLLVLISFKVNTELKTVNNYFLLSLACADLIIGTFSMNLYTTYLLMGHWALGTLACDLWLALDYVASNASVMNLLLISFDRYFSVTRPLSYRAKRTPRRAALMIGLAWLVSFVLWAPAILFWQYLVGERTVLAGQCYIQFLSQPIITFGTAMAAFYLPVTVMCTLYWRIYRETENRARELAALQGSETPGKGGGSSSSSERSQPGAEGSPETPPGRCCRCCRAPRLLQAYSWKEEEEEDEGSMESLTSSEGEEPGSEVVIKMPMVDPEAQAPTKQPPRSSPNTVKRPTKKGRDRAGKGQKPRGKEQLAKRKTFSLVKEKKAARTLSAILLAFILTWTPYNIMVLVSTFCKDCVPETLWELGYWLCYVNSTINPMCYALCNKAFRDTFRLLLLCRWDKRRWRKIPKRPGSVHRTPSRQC
protocol_summary: M1 PAM Assay (IP-One HTRF, IP1 in M1-CHO cells with EC20 of acetylcholine)
test_parameters: 1 hour at room temperature, IP1 readout

Use these answered entries as a reference point.
[
  {
    "compound": "CSc1ccccc1C(=O)N1Cc2nn3c(C)c(C)c(C)nc3c2C1 [Example 25]",
    "EC50": "0.2 to 1 µM"
  },
  {
    "compound": "Cc1nc2c3c(nn2c(C)c1Cl)CN(C(=O)c1ccccc1OC1CCN(C)CC1)C3 [Example 1]",
    "EC50": "< 0.2 µM"
  },
  {
    "compound": "Cc1nc2c3c(nn2c(C)c1C)CN(C(=O)c1ccccc1-n1cccn1)C3 [Example 39]",
    "EC50": "1 to 2 µM"
  }
]

Consider the additional compound presented here.
System muscarinic M1 receptor (Homo sapiens, UniProt P11229). Read-out EC50. Item Cc1nc2c3c(nn2c(C)c1Cl)CN(C(=O)c1ccc(F)cc1OCCn1cccn1)C3 [Example 18] . Report value.
0.2 to 1 µM
